test target: WIZ protein (HiBit-WIZ fusion protein) (Homo sapiens, UniProt O95785+Q96SW2)
Construct: expressed in transfected cells
Sequence (O95785 whole entry, the tested form may be a part): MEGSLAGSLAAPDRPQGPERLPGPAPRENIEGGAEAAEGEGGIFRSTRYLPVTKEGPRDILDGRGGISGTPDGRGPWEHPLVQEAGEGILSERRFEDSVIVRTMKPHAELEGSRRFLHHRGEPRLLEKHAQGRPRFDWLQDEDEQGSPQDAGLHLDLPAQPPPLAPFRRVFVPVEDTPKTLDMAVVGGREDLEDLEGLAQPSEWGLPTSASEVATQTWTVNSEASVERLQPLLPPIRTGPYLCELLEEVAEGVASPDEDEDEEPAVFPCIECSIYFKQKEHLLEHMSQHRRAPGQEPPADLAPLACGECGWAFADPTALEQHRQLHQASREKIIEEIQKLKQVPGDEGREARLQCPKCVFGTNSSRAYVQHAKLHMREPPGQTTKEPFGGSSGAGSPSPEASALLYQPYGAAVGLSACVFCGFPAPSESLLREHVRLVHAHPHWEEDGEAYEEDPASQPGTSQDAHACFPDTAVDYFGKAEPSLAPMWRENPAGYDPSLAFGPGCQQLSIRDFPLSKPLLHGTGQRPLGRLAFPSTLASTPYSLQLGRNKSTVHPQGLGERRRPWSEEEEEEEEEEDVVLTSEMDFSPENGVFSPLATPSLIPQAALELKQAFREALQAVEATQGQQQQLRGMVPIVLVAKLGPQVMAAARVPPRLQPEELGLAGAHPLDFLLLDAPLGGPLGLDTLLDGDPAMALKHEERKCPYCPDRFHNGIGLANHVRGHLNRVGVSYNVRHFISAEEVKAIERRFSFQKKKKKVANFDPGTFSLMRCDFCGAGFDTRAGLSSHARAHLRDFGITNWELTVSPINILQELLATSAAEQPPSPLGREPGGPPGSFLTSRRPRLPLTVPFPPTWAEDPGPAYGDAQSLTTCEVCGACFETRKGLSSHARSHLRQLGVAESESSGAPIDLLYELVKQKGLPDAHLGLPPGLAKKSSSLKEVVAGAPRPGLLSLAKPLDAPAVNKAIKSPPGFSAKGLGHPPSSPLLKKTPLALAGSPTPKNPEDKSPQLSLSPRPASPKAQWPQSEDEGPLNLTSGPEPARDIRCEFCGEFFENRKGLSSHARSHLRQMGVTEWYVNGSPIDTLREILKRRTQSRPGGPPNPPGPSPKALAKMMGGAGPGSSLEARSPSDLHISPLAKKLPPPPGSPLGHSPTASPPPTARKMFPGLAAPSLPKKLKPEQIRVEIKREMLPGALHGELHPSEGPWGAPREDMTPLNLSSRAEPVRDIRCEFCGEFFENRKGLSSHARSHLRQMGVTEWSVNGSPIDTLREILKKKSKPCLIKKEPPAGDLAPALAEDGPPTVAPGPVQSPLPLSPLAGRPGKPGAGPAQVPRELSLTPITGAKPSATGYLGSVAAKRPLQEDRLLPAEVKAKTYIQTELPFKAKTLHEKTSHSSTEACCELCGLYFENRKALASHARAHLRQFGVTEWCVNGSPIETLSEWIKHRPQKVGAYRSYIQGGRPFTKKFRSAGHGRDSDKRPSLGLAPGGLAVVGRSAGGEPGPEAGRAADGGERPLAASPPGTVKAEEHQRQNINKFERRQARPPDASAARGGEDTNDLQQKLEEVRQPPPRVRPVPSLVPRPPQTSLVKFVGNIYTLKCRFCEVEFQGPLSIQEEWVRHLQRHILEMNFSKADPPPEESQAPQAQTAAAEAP
Sequence (Q96SW2 whole entry, the tested form may be a part): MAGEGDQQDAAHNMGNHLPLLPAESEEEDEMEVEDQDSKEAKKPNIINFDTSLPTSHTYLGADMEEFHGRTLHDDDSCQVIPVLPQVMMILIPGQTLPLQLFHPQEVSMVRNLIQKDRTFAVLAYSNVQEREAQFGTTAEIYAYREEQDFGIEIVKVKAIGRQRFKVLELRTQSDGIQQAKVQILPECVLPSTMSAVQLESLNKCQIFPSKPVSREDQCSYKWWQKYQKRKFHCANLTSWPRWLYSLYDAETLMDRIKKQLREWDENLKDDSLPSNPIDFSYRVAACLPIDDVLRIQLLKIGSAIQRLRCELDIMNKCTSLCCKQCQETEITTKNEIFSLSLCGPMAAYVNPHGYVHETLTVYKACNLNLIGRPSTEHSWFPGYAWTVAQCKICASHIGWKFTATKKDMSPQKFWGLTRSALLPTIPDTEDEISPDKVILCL
Sequence (Q16531 whole entry partner, the tested form may be a part): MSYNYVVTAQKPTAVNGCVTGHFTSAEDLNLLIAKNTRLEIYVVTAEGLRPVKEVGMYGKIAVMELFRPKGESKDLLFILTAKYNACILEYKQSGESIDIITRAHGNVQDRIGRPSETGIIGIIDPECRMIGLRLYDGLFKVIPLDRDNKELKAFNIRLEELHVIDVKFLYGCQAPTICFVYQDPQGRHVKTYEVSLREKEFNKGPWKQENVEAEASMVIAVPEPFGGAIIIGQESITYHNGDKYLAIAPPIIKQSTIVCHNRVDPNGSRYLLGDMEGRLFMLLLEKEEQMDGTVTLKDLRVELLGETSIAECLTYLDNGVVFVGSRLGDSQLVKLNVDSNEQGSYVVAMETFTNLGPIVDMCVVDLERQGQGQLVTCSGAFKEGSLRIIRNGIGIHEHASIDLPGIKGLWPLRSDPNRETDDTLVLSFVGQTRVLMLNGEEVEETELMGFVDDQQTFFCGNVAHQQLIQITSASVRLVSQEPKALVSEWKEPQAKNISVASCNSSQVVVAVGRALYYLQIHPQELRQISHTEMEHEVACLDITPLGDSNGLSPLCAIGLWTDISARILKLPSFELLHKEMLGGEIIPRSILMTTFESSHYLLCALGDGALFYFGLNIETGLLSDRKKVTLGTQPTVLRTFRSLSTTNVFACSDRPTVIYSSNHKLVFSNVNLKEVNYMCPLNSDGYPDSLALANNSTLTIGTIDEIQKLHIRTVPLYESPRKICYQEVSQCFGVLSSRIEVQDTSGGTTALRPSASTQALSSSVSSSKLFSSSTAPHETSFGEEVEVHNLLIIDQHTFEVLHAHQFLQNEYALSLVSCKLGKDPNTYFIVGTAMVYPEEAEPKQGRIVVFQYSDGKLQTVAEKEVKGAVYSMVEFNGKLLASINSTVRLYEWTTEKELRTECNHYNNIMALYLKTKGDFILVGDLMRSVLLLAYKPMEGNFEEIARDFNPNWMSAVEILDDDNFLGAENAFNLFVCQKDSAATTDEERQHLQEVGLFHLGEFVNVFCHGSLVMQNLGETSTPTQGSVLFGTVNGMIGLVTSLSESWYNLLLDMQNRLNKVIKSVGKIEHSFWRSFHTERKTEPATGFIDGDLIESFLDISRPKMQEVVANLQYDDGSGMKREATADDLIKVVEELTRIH
test summary: Quantification of WIZ protein levels in HiBit tag fusion protein assay (WIZ HiBit assay in 293T cells)
Type: cell-based
settings: HEK-293T, 100 − Amax, at 25 uM; 293T cells; read-out: % degradation of WIZ (100 − Amax)
Each item that follows carries a reported Dmax at 25 µM.
Write the value in % as a bare number.

# compound, test target, u, Dmax at 25 µM
data = [
    ("C[C@H]1CN(Cc2ccn3ncc(N4CCC(=O)NC4=O)c3c2)CCN1Cc1cccnc1 [Example 208]", "WIZ protein (HiBit-WIZ fusion protein) (Homo sapiens, UniProt O95785+Q96SW2)", "%", 60),
    ("O=C1CCN(c2cnn3ccc(CC4CCN(CC5CCC(F)(F)CC5)CC4)cc23)C(=O)N1 [Example 4]", "WIZ protein (HiBit-WIZ fusion protein) (Homo sapiens, UniProt O95785+Q96SW2)", "%", 90),
    ("CC(C)CN1CCN(Cc2ccn3ncc(-n4ccc(=O)[nH]c4=O)c3c2)C[C@@H]1C [Example 357]", "WIZ protein (HiBit-WIZ fusion protein) (Homo sapiens, UniProt O95785+Q96SW2)", "%", 85),
]

Now examine the next entry.
Reported Dmax at 25 µM ( O=C1CCN(c2cnn3ccc(CC4CNC4)cc23)C(=O)N1 [Example 133] ) = 21

---

Each item that follows carries a reported DC50.
test target: WIZ protein (HiBit-WIZ fusion protein) (Homo sapiens, UniProt O95785+Q96SW2)
Construct: expressed in transfected cells
test summary: Quantification of WIZ protein levels in HiBit tag fusion protein assay (WIZ HiBit assay in 293T cells)
Type: cell-based
settings: WIZ HiBit assay in 293T cells; 10-point, 5-fold dose response, highest concentration 25 μM, about 18 hours; read-out: WIZ AC50

Reported DC50 ( C[C@@H]1CN(Cc2ccn3ncc(N4CCC(=O)NC4=O)c3c2)CCN1Cc1cccnc1 ) = 2620 nM

Reported DC50 ( C[C@H]1CN(Cc2ccn3ncc(N4CCC(=O)NC4=O)c3c2)CCN1CC1CCC(F)(F)CC1 ) = 14 nM

Reported DC50 ( O=C1CCN(c2cnn3ccc(CC4CCN(Cc5ccccc5Cl)CC4)cc23)C(=O)N1 ) = 98 nM

Reported DC50 ( C[C@H]1C[C@H](Cc2ccn3ncc(N4CCC(=O)NC4=O)c3c2)CCN1CC1CCOCC1 ) = 11 nM

Reported DC50 ( O=C1CCN(c2cnn3ccc(CN4CCN(Cc5cccnc5)CC4)cc23)C(=O)N1 ) = 683 nM

Reported DC50 ( COc1ccccc1CN1CCC(Cc2ccn3ncc(N4CCC(=O)NC4=O)c3c2)CC1 ) = 2580 nM

Reported DC50 ( O=C1CCN(c2cnn3ccc(CN4CCN5[C@@H](CCS5(=O)=O)C4)cc23)C(=O)N1 ) = 1020 nM

Reported DC50 ( O=C1CCN(c2cnn3ccc(CC4CCN(S(=O)(=O)Cc5ccccc5)CC4)cc23)C(=O)N1 ) = 181 nM

Reported DC50 ( C[C@H]1C[C@H](Cc2ccn3ncc(N4CCC(=O)NC4=O)c3c2)CCN1C(=O)C1CCC1 ) = 33 nM

Reported DC50 ( CC(C)CN1CCC(Cc2ccn3ncc(N4CCC(=O)NC4=O)c3c2)C1 (centres unmarked) ) = 720 nM

Reported DC50 ( O=C1CCN(c2cnn3ccc(CN4CCN(CC5CCCCC5)CC4=O)cc23)C(=O)N1 ) = > 25000 nM

---

test target: WIZ protein (HiBit-WIZ fusion protein) (Homo sapiens, UniProt O95785+Q96SW2)
Construct: expressed in transfected cells
test summary: Quantification of WIZ protein levels in HiBit tag fusion protein assay (WIZ HiBit assay in 293T cells)
Format: cell-based
settings: WIZ HiBit assay in 293T cells; 10-point, 5-fold dose response, highest concentration 25 μM, about 18 hours; read-out: WIZ AC50
Each item that follows carries a reported DC50.
Write the value in nM as a bare number.

# compound, u, DC50
data = [
    ("CC(C)C(C)N1CCN(Cc2ccn3ncc(N4CCC(=O)NC4=O)c3c2)CC1 (centres unmarked)", "nM", 25),
]

Reported DC50 ( CO[C@H]1CC[C@H](CN2CCN(Cc3ccn4ncc(N5CCC(=O)NC5=O)c4c3)C[C@@H]2C)CC1 ) = 16

Reported DC50 ( O=C1CCN(c2cnn3ccc(CC4CCN(CC5CCC5)CC4)cc23)C(=O)N1 ) = 34

Reported DC50 ( O=C1CCN(c2cnn3ccc(CC4CCN(Cc5cscn5)CC4)cc23)C(=O)N1 ) = 267

Reported DC50 ( CC(c1cccc(F)c1)N1CCC(Cc2ccn3ncc(N4CCC(=O)NC4=O)c3c2)CC1 (centres unmarked) ) = 61

Reported DC50 ( C[C@@H]1C[C@H](Cc2ccn3ncc(N4CCC(=O)NC4=O)c3c2)CCN1CC1CCCCC1 ) = 36

Reported DC50 ( O=C1CCN(c2cnn3ccc(CN4C[C@H]5CC[C@@H](C4)N5CC4CCCCC4)cc23)C(=O)N1 ) = 277

---

test target: WIZ protein (HiBit-WIZ fusion protein) (Homo sapiens, UniProt O95785+Q96SW2)
Construct: expressed in transfected cells
test summary: Quantification of WIZ protein levels in HiBit tag fusion protein assay (WIZ HiBit assay in 293T cells)
Assay type: cell-based
settings: WIZ HiBit assay in 293T cells; 10-point, 5-fold dose response, highest concentration 25 μM, about 18 hours; read-out: WIZ AC50
Each item that follows carries a reported DC50.
Write the value in nM as a bare number.

Here is how some compounds turned out for DC50.
# compound, DC50 (nM)
data = [
    ("COCCN1CCC(Cc2ccn3ncc(N4CCC(=O)NC4=O)c3c2)CC1", 945),
    ("C[C@@H]1CN(Cc2ccn3ncc(N4CCC(=O)NC4=O)c3c2)CCN1CC1CCCCC1", 151),
    ("CC(C)CN1CCN(Cc2ccn3ncc(N4CCC(=O)NC4=O)c3c2)[C@H](C)C1", 133),
]

Now examine the next entry.
Reported DC50 ( CO[C@H]1CC[C@H](CN2CCN(Cc3ccn4ncc(N5CCC(=O)NC5=O)c4c3)CC2)CC1 ) = 49

---

test target: WIZ protein (HiBit-WIZ fusion protein) (Homo sapiens, UniProt O95785+Q96SW2)
Construct: expressed in transfected cells
test summary: Quantification of WIZ protein levels in HiBit tag fusion protein assay (WIZ HiBit assay in 293T cells)
Type: cell-based
settings: HEK-293T, 100 − Amax, at 25 uM; 293T cells; read-out: % degradation of WIZ (100 − Amax)
Each item that follows carries a reported Dmax at 25 µM.
Write the value in % as a bare number.

Here is how some compounds turned out for Dmax at 25 µM.
# compound, endpoint label, reported measurement
records = [
    ("C[C@H]1CN(Cc2ccn3ncc(N4CCC(=O)NC4=O)c3c2)CCN1CC1CC(F)(F)C1", "Dmax at 25 µM", 82),
    ("O=C1CCN(c2cnn3ccc(CC4CCN(CC5CCOCC5)CC4)cc23)C(=O)N1", "Dmax at 25 µM", 90),
    ("CC(C)CN1CCC(F)(Cc2ccn3ncc(N4CCC(=O)NC4=O)c3c2)CC1", "Dmax at 25 µM", 58),
    ("O=C1CCN(c2cnn3ccc(CC4CCN(Cc5ccc(C(F)(F)F)nc5)CC4)cc23)C(=O)N1", "Dmax at 25 µM", 64),
    ("C[C@H]1CN(Cc2ccn3ncc(N4CCC(=O)NC4=O)c3c2)CCN1C1CC2(C1)CN(C)C2", "Dmax at 25 µM", 76),
]

Reported Dmax at 25 µM ( Cn1nccc1CN1CCN(Cc2ccn3ncc(N4CCC(=O)NC4=O)c3c2)CC1 ) = 48

Reported Dmax at 25 µM ( O=C1CCN(c2cnn3ccc(CC4CCN(CC5CCNCC5)CC4)cc23)C(=O)N1 ) = 36

Reported Dmax at 25 µM ( Cc1cn(-c2cnn3ccc(C[C@@H]4CCN(CC(C)C)[C@@H](C)C4)cc23)c(=O)[nH]c1=O ) = 89

Reported Dmax at 25 µM ( O=C1CCN(c2cnn3ccc(CN4C[C@H]5CC[C@@H](C4)N5Cc4cccc(F)c4)cc23)C(=O)N1 ) = 18

Reported Dmax at 25 µM ( C[C@H]1CN(Cc2ccn3ncc(N4CCC(=O)NC4=O)c3c2)CCN1CC1(C)CCC1 ) = 86

Reported Dmax at 25 µM ( O=C1CCN(c2cnn3ccc(CC4CCN(CCC5CCCC5)CC4)cc23)C(=O)N1 ) = 84

Reported Dmax at 25 µM ( C[C@H]1CN(Cc2ccn3ncc(N4CCC(=O)NC4=O)c3c2)CCN1C[C@H]1C[C@@H](F)[C@@H](F)C1 ) = 87

Reported Dmax at 25 µM ( CC(C)[C@H]1CN(Cc2ccn3ncc(N4CCC(=O)NC4=O)c3c2)CCN1CC1CCOCC1 ) = 0

Reported Dmax at 25 µM ( O=C1CCN(c2cnn3ccc(CC4CCN(Cc5cncc(F)c5)CC4)cc23)C(=O)N1 ) = 73

Reported Dmax at 25 µM ( O=C1CCN(c2cnn3ccc(CC4CCN(Cc5cccc(F)c5F)CC4)cc23)C(=O)N1 ) = 65

Reported Dmax at 25 µM ( CC(C)CN1CCN(Cc2ccn3ncc(N4CCC(=O)NC4=O)c3c2)CC1(C)C ) = 40
